System: Mus musculus
experiment: Antinociceptive activity in Swiss Albino mouse at 20 mg/kg, po by writhing test measured as number of writhes in presence of yohimbine
Format: functional
# binarize Activity: threshold 40 inclusive, high side satisfied, low side not satisfied

Some solved entries appear below for comparison.
>  <input_smiles>
Cc1noc2c(-c3ccccc3)nn(CCC(=O)N3CCN(c4cccc(Cl)c4)CC3)c(=O)c12

>  <system_tested>
Mus musculus

>  <category_label>
satisfied

$$$$
>  <input_smiles>
Cc1noc2cnn(CCCN3CCN(c4cccc(Cl)c4)CC3)c(=O)c12

>  <system_tested>
Mus musculus

>  <category_label>
not satisfied

$$$$
>  <input_smiles>
O=C1c2ccccc2C(=O)N1CCN1CCN(c2ccc(F)cc2)CC1

>  <system_tested>
Mus musculus

>  <category_label>
not satisfied

$$$$

stdin: Given "O=c1c2ccccc2cnn1CCCN1CCN(c2cccc(Cl)c2)CC1" , state whether its Activity is at least 40.
stdout: not satisfied

stdin: Is it the case that "Cc1noc2c(-c3ccccc3)nn(CCN3CCN(c4cccc(Cl)c4)CC3)c(=O)c12" has Activity reaching or exceeding 40?
stdout: not satisfied

Where do the numbers come from? From ChEMBL document CHEMBL1138852.
